Molecular target: His-tagged KRAS G12D protein (Homo sapiens, UniProt P01116, G12D)
Sequence (P01116 1-188 isoform P01116-2 G12D): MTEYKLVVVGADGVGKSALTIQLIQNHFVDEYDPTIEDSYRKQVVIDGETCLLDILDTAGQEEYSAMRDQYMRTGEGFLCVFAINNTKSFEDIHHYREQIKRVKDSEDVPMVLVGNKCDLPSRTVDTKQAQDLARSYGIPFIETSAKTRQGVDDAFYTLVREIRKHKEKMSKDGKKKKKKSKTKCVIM
Assay: KRAS G12D TR-FRET Assay
Type: binding
Conditions: TR-FRET binding
Method: The His-tagged KRAS G12D protein (Amgen) was diluted to 20 nM in Assay Buffer (20 mM HEPES, pH 7.4, 10 mM MgCl2, 50 mM NaCl, 0.1% BSA, 0.01% Tween-20, 10 μM GDP) and 2 μL was added to the appropriate wells of the 384-well plate. The plate was incubated for 30 minutes at room temperature. Biotinylated KRPep-2d substrate (Amgen) was diluted to 20 nM in Assay Buffer and 2 μL was added to all wells and incubated for 1 hour at room temperature. […]
reported.property: log10 IC50 (log10 of the value in nM)
Use the decimal logarithm of IC50 (nM).

For Cc1cc2[nH]ncc2c2c1CCCOC(=O)O[C@@]1(C)COCCN(C1)c1nc(OC[C@@H]3CCCN3C)nc3c(F)c-2ncc13 (single isomer, unassigned) , what is its reported log10 IC50?
3.88

Give the measured log10 IC50 of O=C1OCCCc2c(Cl)cc3[nH]ncc3c2-c2ncc3c(nc(OC[C@@]45CCCN4C[C@H](F)C5)nc3c2F)N2CCOC[C@](CF)(C2)O1 (single isomer, unassigned) .
0.70

Return reported log10 IC50 values for all items listed beneath this line.
1. Fc1c2ncc3c(nc(OC[C@@]45CCCN4C[C@H](F)C5)nc13)N1CCOC[C@@H](COCCCCc3c(Cl)cc4[nH]ncc4c3-2)C1 (single isomer, unassigned)
2. Fc1cc2[nH]ncc2c2c1CCCCOC[C@H]1CCCCN(C1)c1nc(OC[C@@]34CCCN3C[C@H](F)C4)nc3c(F)c-2ncc13 (single isomer, unassigned)
3. Fc1c2ncc3c(nc(OC[C@@]45CCCN4C[C@H](F)C5)nc13)N1CCOC[C@@H](C1)c1cnn(n1)CCCc1c(Cl)cc3[nH]ncc3c1-2 (single isomer, unassigned)
4. Fc1cc2[nH]ncc2c2c1CCCCOC[C@@H]1CCCCN(C1)c1nc(OC[C@@]34CCCN3C[C@H](F)C4)nc3c(F)c-2ncc13 (single isomer, unassigned)

0.60
0.48
3.91
0.78

For each of the compounds below, state log10 IC50.
1. Cc1cc2[nH]ncc2c2c1CCOC(=O)O[C@H]1C[C@@]3(CCCN(C3)c3nc(OC[C@@H]4CCCN4C)nc4c(F)c-2ncc34)C1 (single isomer, unassigned)
2. Cc1cc2[nH]ncc2c2c1/C=C\COC(=O)O[C@@H]1CCCN(C1)c1nc(OC[C@@]34CCCN3C[C@H](F)C4)nc3c(F)c-2ncc13 (single isomer, unassigned)
3. CN1CCC[C@H]1COc1nc2c3cnc(c(F)c3n1)-c1c(c(Cl)cc3[nH]ncc13)CCCOC(=O)O[C@]1(CF)COCCN2C1 (single isomer, unassigned)
4. O=C1OCCc2c(Cl)cc3[nH]ncc3c2-c2ncc3c(nc(OC[C@@]45CCCN4C[C@H](F)C5)nc3c2F)N2CCC[C@]3(C[C@@H](CO3)O1)C2 (single isomer, unassigned)

1: 2.00; 2: 0.90; 3: 0.85; 4: 0.48

* * *

Would you mind telling me the reported IC50 of each entry?
Target: His-tagged KRAS G12D protein (Homo sapiens, UniProt P01116, G12D)
Experiment: KRAS G12D TR-FRET Assay
Type: binding
Details: TR-FRET binding
Procedure: The His-tagged KRAS G12D protein (Amgen) was diluted to 20 nM in Assay Buffer (20 mM HEPES, pH 7.4, 10 mM MgCl2, 50 mM NaCl, 0.1% BSA, 0.01% Tween-20, 10 μM GDP) and 2 μL was added to the appropriate wells of the 384-well plate. The plate was incubated for 30 minutes at room temperature. Biotinylated KRPep-2d substrate (Amgen) was diluted to 20 nM in Assay Buffer and 2 μL was added to all wells and incubated for 1 hour at room temperature. […]
Please state the number and follow it with the unit.

Consider the worked cases shown below.
Reported IC50 for C[C@@]12COCCN(C1)c1nc(OC[C@@]34CCCN3C[C@H](F)C4)nc3c(F)c(ncc13)-c1c3c(cc4[nH]ncc14)CC[C@H]3CCOC(=O)O2 (single isomer, unassigned) [Example 365] : what is it?
3 nM

Need IC50, item C[C@H]1CCOC[C@H]2CN(CCO2)c2nc(OC[C@@]34CCCN3C[C@H](F)C4)nc3c(F)c(ncc23)-c2c(c(Cl)cc3[nH]ncc23)C1 (single isomer, unassigned) [Example 252]
28 nM

For the compound shown here, C[C@]12CCCN(C1)c1nc(OC[C@@]34CCCN3C[C@H](F)C4)nc3c(F)c(ncc13)-c1cccc3ccc(F)c(c13)CCOC(=O)N2 (single isomer, unassigned) [Example 78] , give the reported IC50.
3810 nM

Your task in this section: give IC50 for each listed record.
1. Fc1c2ncc3c(nc(OC[C@@]45CCCN4C[C@H](F)C5)nc13)N1CCCC[C@@H](C1)c1cnn(n1)CCCc1c(Cl)cc3[nH]ncc3c1-2 (single isomer, unassigned) [Example 295]
2. C[C@H](Oc1nc2c3cnc(c(F)c3n1)-c1c(c(Cl)cc3[nH]ncc13)CCCOC(=O)O[C@@H]1COCCN2C1)[C@@H]1CCCN1C (single isomer, unassigned) [Example 204]

2250 nM
34 nM
